tested on: fungi; experiment: Observed contribution of nutrients to antifungal activity; format: cell-based; details: nutrient of the antimicrobial mixture
TEST_READOUT: contribution to the antifungal activity of the antimicrobial mixture

| COMPOUND | VALUE_REPORTED |
| --- | --- |
| O=C(O)CC(O)(CC(=O)O)C(=O)O [citrate] | contribute minimally |
| NCC(=O)O | contribute minimally |
| O=C1O[C@H]([C@@H](O)CO)C(O)=C1O | contribute minimally |

Values compiled from patent US10632202B2.
